B1: TNXB (parent)
chain: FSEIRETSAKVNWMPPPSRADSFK

Variants of: B1
Experiment: protein stability index of a GFP-peptide fusion (GPS, HEK-293T) (PSI 1-6); higher = more stable;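 further: lentivirally expressed fusions sorted by FACS into six bins by GFP to DsRed ratio, PSI derived from sequencing read proportions per bin multiplied by bin number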
Settings: c terminus: a fixed tail appended
Each entry gets 0 if its protein stability index stays under 3, and 1 if its protein stability index is 3 or above.

For orientation, consider the following solved cases.
R19Y = 1
K10Q = 1
K24N = 1
V11N = 1
R19D = 1

Has K10M a recorded protein stability index greater than or equal to 3?
1

Reported protein stability index at or above 3? R19W
0
